target: tyrosinspezifischen Kinase (T-Kinase); experiment: Inhibition of tyrosine-specific kinase (literature method); type: biochemical; settings: read-out: Inhibierung von Proteinkinasen (IC50, µM) T-Kinase
test_readout: IC50 (µM)
Entry rule: numbers only, all in µM.

// assay tyrosinspezifischen Kinase (T-Kinase), entry Cn1c2ccccc2c2c3c(c4c5ccccc5n(CCC#N)c4c21)CNC3=O [Beispiel 2] , IC50 value = 25

---

Target: cGMP-abhängigen Proteinkinase (G-Kinase) (Bos taurus)
Sequence (P00516 2-671): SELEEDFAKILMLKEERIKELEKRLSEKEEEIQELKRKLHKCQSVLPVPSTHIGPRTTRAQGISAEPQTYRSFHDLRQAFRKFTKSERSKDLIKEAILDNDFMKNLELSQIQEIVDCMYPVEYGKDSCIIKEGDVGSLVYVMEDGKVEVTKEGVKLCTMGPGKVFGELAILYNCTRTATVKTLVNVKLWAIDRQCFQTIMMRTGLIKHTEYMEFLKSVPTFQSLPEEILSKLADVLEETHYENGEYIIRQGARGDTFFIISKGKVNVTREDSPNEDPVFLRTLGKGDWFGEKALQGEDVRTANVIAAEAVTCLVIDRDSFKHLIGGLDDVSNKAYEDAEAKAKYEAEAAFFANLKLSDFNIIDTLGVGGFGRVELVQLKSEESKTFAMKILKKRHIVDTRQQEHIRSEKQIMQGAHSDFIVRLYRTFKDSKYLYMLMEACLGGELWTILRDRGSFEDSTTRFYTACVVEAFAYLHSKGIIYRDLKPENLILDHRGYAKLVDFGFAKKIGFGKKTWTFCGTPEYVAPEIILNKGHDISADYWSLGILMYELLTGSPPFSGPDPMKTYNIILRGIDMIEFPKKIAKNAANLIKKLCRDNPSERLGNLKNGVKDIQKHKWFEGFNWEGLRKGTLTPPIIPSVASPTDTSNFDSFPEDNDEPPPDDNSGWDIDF
Assay: Inhibition of cGMP-dependent protein kinase (literature method)
Format: biochemical
Settings: read-out: Inhibierung von Proteinkinasen (IC50, µM) G-Kinase
From the text: Die Bestimmung der Inhibierung von A-, G-, MLC- oder T-Kinase erfolgte nach den in der Literatur beschriebenen Verfahren (Gill, G.N., Walton M., Advances in cyclic nucleotide research, Vol. 10, herausgegeben von G. Brooker und G.A. Robinson, Raven Press, New York, 1979; Eur. J. Biochem. 1986, 158, 203; Biochem. J. 1984, 218, 863; Analyt. Biochem. 1983, 135, 37; Mol. Immunol. 1989, 26, 897).
test_readout: IC50 (µM)
Entry rule: numbers only, all in µM.

IC50 measured on Cn1c2ccccc2c2c3c(c4c5ccccc5n(CCC#N)c4c21)CNC3=O = 6.2

---

target: Proteinkinase C (PKC); assay: Enzyme assay: inhibition of protein kinase C activated with phosphatidylserine and diacylglycerol (according to EP-A-0 255 126); type: biochemical; conditions: PKC activated with Phosphatidylserin and Diacylglycerol; read-out: 50%ige Inhibierung bei einer Konzentration von
test_readout: IC50 (nM)
Entry rule: numbers only, all in nM.

IC50 measured on Cn1c2ccccc2c2c3c(c4c5ccccc5n(CCC#N)c4c21)CNC3=O = 20

---

Molecular target: UniProtKB P11799
Sequence (P11799 935-1906): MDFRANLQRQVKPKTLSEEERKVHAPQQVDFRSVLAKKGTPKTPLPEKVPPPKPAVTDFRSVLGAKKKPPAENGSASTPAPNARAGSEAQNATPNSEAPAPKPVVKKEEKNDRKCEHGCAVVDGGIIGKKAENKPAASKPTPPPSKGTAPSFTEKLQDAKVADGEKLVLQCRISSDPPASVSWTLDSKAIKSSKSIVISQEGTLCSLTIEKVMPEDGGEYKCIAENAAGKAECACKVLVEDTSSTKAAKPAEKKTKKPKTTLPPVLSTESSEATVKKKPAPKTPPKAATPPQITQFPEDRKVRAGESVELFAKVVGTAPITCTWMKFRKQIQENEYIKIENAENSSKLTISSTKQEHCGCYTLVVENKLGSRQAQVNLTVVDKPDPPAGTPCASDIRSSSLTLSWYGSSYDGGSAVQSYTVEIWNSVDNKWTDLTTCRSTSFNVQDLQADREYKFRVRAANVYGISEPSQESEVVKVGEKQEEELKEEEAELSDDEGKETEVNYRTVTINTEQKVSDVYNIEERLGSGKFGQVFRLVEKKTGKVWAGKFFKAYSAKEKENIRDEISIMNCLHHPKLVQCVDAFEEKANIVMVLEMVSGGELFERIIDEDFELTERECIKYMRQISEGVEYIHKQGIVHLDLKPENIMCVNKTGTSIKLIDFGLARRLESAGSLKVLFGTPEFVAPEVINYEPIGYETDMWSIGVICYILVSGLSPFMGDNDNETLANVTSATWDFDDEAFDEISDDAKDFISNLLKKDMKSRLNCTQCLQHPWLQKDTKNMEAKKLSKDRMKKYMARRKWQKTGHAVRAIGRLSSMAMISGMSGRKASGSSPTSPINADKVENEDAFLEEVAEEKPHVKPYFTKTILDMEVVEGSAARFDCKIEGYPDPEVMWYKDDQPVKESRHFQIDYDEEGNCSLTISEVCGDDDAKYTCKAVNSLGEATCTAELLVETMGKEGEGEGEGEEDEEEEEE
Assay: Inhibition of myosin light chain kinase (literature method)
Type: biochemical
Details: read-out: Inhibierung von Proteinkinasen (IC50, µM) MLC-Kinase
From the text: Die Bestimmung der Inhibierung von A-, G-, MLC- oder T-Kinase erfolgte nach den in der Literatur beschriebenen Verfahren (Gill, G.N., Walton M., Advances in cyclic nucleotide research, Vol. 10, herausgegeben von G. Brooker und G.A. Robinson, Raven Press, New York, 1979; Eur. J. Biochem. 1986, 158, 203; Biochem. J. 1984, 218, 863; Analyt. Biochem. 1983, 135, 37; Mol. Immunol. 1989, 26, 897).
test_readout: IC50
The reply must contain the numeric value and, after it, the unit.

IC50 measured on Cn1c2ccccc2c2c3c(c4c5ccccc5n(CCC#N)c4c21)CNC3=O = 5.8 µM
